# target_under_test: human Werner helicase (WRN-BV08, Uniprot Q14191, amino acids 517-1235 with L1074F point mutation) (Homo sapiens, UniProt Q14191, L1074F)
# Construct: Uniprot Q14191, amino acids 517-1235 with L1074F point mutation; TEV-cleavable 8×His (C, cleaved yes); made in house; host or cells: Sf9 insect cells (baculovirus)
# Sequence (Q14191 with tags, fused parts or gaps L1074F limits assumed): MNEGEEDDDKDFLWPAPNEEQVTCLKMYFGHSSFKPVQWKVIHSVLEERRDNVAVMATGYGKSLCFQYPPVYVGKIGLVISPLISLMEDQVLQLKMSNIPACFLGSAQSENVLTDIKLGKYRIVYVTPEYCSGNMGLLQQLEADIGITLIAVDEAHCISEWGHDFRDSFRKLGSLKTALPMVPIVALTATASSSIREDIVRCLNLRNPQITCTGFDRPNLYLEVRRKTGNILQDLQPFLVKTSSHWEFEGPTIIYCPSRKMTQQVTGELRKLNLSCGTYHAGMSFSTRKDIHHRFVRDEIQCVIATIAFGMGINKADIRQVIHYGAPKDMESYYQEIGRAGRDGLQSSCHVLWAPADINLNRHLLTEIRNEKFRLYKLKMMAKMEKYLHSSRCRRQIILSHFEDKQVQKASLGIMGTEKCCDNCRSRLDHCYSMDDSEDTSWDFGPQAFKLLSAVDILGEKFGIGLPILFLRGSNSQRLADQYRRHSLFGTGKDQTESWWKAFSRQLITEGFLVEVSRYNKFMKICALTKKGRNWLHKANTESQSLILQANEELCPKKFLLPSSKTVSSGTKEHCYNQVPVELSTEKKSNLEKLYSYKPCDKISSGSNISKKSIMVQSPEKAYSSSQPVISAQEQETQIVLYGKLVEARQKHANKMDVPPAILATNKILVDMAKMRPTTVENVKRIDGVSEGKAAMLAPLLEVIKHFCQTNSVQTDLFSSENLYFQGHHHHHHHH
# assay_protocol: WRN (BV08) ADP-Glo Assay
# Assay type: biochemical
# condition_label: 0.15 nM WRN, 5 μM ATP, 0.1 nM DNA duplex, 15 min preincubation, 60 min at 25° C., pH 7.5, 1% DMSO; read-out: ADP-Glo_hWRN_IC50
pIC50: −log10 of the molar value.
Kindly state pIC50 for each of the entries shown.

// worked examples, pIC50 included
compound	metric_name	assay_result
O=C(Cc1ccc(-n2cccc2)cc1)N(Cc1ccc2ccccc2n1)C1C=CS(=O)(=O)C1 (centres unmarked) [I-210]	pIC50	5.30 to 6.30
O=C(Nc1ccc(CC(=O)N(Cc2ccncc2)C2C=CS(=O)(=O)C2)cc1)C1CC1 (centres unmarked) [I-448]	pIC50	< 4.30

Give measured pIC50 for every item shown.
1. COc1ccc(CN(C(=O)Cn2cc(-c3ccc(F)c(F)c3)cn2)C2C=CS(=O)(=O)C2)cn1 (centres unmarked) [I-762]
2. COc1ccc2cc(CC(=O)N(Cc3ccncc3)C3C=CS(=O)(=O)C3)ccc2c1 (centres unmarked) [I-511]
3. COc1cc(CN(C(=O)C(OCC2CCCN(S(C)(=O)=O)C2)c2ccc(-c3ccc(F)c(F)c3)cc2F)[C@@H]2C=CS(=O)(=O)C2)ccn1 (some centres unmarked) [I-809]
4. O=C(Cc1ccc(-n2cccc2)cc1)N(Cc1ccnc(OC(F)F)c1)C1C=CS(=O)(=O)C1 (centres unmarked) [I-215]
5. COc1cc(CN(C(=O)Cc2ccc(C(C)(F)F)cc2)C2C=CS(=O)(=O)C2)ccn1 (centres unmarked) [I-117]

1: 5.30 to 6.30; 2: < 4.30; 3: 5.30 to 6.30; 4: 5.30 to 6.30; 5: 5.30 to 6.30

Using the record for CCN(CC)C(=O)C(C(=O)N(Cc1ccnc(C(C)(C)O)c1)C1C=CS(=O)(=O)C1)c1ccc(-c2ccc(F)c(F)c2)cc1F (centres unmarked) [I-62] , report its pIC50.
> 6.30

---

# target_under_test: human Werner helicase (WRN-BV08, Uniprot Q14191, amino acids 517-1235 with L1074F point mutation) (Homo sapiens, UniProt Q14191, L1074F)
# Construct: Uniprot Q14191, amino acids 517-1235 with L1074F point mutation; TEV-cleavable 8×His (C, cleaved yes); made in house; host or cells: Sf9 insect cells (baculovirus)
# assay_protocol: WRN (BV08) ADP-Glo Assay
# Assay type: biochemical
# condition_label: 0.15 nM WRN, 5 μM ATP, 0.1 nM DNA duplex, 15 min preincubation, 60 min at 25° C., pH 7.5, 1% DMSO; read-out: ADP-Glo_hWRN_IC50
metric_name: IC50

Give measured IC50 for every item shown.
1. Cc1cccn1-c1ccc(CC(=O)N(Cc2cccnn2)C2C=CS(=O)(=O)C2)c(F)c1 (stereo not shown) [I-224]
2. O=C(Cc1ccc(S(F)(F)(F)(F)F)cc1)N(Cc1ccncc1)C1C=CS(=O)(=O)C1 (stereo not shown) [I-63]
3. CC(C(=O)N(Cc1ccnc(C(C)(C)O)c1)[C@@H]1C=CS(=O)(=O)C1)n1ccc(-c2ccc(F)c(F)c2)cc1=O (single isomer, unassigned) [I-769]
4. O=C(Cc1cccc(Oc2ccccc2)c1)N(Cc1ccncc1)C1C=CS(=O)(=O)C1 (stereo not shown) [I-510]

["5 to 10 µM", "< 0.5 µM", "< 0.5 µM", "> 50 µM"]

Give measured IC50 for every item shown.
1. COc1nccc(CN(C(=O)Cc2ccc(-n3cccc3C)cc2F)C2C=CS(=O)(=O)C2)n1 (stereo not shown) [I-112]
2. CC(C)(O)c1cc(CN(C(=O)Cc2ccc(-n3cccc3)cc2F)C2C=CS(=O)(=O)C2)ccn1 (stereo not shown) [I-61]

1. 0.5 to 5 µM
2. < 0.5 µM
